Target sequence: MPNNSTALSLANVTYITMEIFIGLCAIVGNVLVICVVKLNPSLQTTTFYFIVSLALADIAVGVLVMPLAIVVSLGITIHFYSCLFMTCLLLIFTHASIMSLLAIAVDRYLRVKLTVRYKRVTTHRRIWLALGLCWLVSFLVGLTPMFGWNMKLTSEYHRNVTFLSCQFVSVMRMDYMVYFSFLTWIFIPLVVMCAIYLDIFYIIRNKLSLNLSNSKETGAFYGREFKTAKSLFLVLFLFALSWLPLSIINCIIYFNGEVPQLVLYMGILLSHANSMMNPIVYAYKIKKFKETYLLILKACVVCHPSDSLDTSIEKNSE
pKi: −log10 of the molar value.
pKi for the protein given by its sequence - collated from the literature.
property-name: pKi

Check out these entries, answers already filled in.
{"columns": ["structure-smiles-string", "target-or-test-system", "numeric-readout"],
 "data": [
  ["O=c1[nH]c2ccccc2c2cn(Cc3ccccc3)nc12", "the protein given by its sequence", 7.13],
  ["Cn1cc2c(nc(NC(CO)CO)n3nc(-c4ccco4)nc23)n1", "the protein given by its sequence", 6.27],
  ["CCn1nnc([C@H]2O[C@@H](n3cnc4c(N)nc(N[C@H](CO)Cc5ccc([N+](=O)[O-])cc5)nc43)[C@H](O)[C@@H]2O)n1", "the protein given by its sequence", 6.40],
  ["Cc1ccc(NC(=O)Nc2nc(N(C)C)nc3nc(-c4ccco4)nn23)cc1", "the protein given by its sequence", 5.02],
  ["OC[C@H]1O[C@@H](n2cnc3c(N[C@H]4CCC[C@@H]4O)ncnc32)[C@H](O)[C@@H]1O", "the protein given by its sequence", 5.60]
]}

A = CNC(=O)[C@@]12C[C@@H]1[C@@H](n1cnc3c(NCCc4ccc(OC)c(O)c4)nc(C#Cc4ccc(Cl)s4)nc31)[C@H](O)[C@@H]2O
B = C=CCn1c(=O)c2c(nc3[nH]c(C)cn32)n(Cc2ccccc2)c1=O
C = COc1ccc(-n2cc3nc(-c4ccccc4)nc(NC(=O)c4ccccc4)c3n2)cc1
D = O=C(Nc1nc(-c2ccccc2)cc2ccccc12)c1ccccc1
Rank order required: pKi, descending. Rank them, then answer with their labels in that order.
B, A, C, D
(B: 8.29, A: 8.08, C: 7.74, D: 5.92)

* * *

Ki for Adenosine receptor A3 (Homo sapiens, UniProt P0DMS8) - collated from the literature.
property-name: Ki (nM)

A = Cn1cc2c(nc(NC(=O)Nc3cc4ccccc4o3)n3nc(-c4ccco4)nc23)n1
B = COc1ccc(CNc2ncc(C(=O)NCCc3ccccc3)c3nc(-c4ccco4)nn23)cc1OC
C = O=c1n(-c2ccccc2)nc2c(OCc3ccccc3)nc3ccccc3n12
D = COc1ccc(C(=O)Nc2nc(-c3ccccc3)c(-c3nc(N)c4c(C)c(C)sc4n3)s2)cc1
List the 4 molecules shown above, ordered by increasing Ki. Rank them, then answer with their labels in that order.
A, C, B, D
(A: 12 nM, C: 21 nM, B: 87.7 nM, D: 2470 nM)

* * *

Ki for the protein given by its sequence - collated from the literature.
Target protein (sequence): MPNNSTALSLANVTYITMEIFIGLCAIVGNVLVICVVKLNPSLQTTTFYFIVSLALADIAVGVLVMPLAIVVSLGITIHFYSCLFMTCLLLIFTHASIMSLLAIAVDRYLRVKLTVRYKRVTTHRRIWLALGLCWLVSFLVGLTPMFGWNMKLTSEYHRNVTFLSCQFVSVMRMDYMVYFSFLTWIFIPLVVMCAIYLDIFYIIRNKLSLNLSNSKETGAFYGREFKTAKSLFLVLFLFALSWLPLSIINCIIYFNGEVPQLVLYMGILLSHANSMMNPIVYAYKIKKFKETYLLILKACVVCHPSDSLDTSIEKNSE
property-name: Ki (nM)

A = CCCn1c(=O)[nH]c2nc[nH]c2c1=O
B = CCCCC#Cc1nc2c(N)ncnc2n1[C@@H]1SC[C@@H](O)[C@H]1O
Which value of Ki is greater, the one for A or the one for B ? Let me know the label of the one you choose.
A

1 = Nc1nc(-c2cccc(CO)c2)nc2sc(-c3ccco3)nc12
2 = CN1CCN(c2nc(-c3ccc(Cl)c(C(F)(F)F)c3)nc3[nH]cnc23)CC1
3 = CC(C)Cn1c(=O)[nH]c2nc(-c3cnn(Cc4cccc(F)c4)c3)[nH]c2c1=O
4 = CCOC(=O)CCCNc1nc2nn(C)cc2c2nc(-c3ccco3)nn12
Sort ascending by Ki. Rank them, then answer with their labels in that order.
1, 4, 2, 3
(1: 0.9 nM, 4: 108 nM, 2: 794 nM, 3: 1600 nM)
